# ASSAY COMMENT: Circular dichroism secondary structure (Dichroweb), with POPG
# Type: physicochemical
# CONDITION SUMMARY: 70 °C
No end group written: not given here.
Parameter: Peptide-POPG, Strand. Scope: all listed entries.
READOUT LABEL: Peptide-POPG, Strand (%)

SUBSTANCE	READOUT LABEL	TEST RESULT
H-GLLDLLKLLLKLAGW-NH2 [Peptide 28H6]	Peptide-POPG, Strand	25
H-GLLDAAKLLAKAAGW-NH2 [Peptide 24F1]	Peptide-POPG, Strand	1
H-GLLDLLHLLLKAAGW-NH2 [Peptide K7H]	Peptide-POPG, Strand	2
H-GLDDLAKLLLKLAGW-NH2 [Peptide 25B2]	Peptide-POPG, Strand	0
H-GLADLAKLLLKLLGW-NH2 [Peptide 7F3]	Peptide-POPG, Strand	2
H-GLLDLPKALAKALGW-NH2 [Peptide 7G6]	Peptide-POPG, Strand	3
H-GLDDLLKALLKAAGW-NH2 [Peptide 4H9]	Peptide-POPG, Strand	0
H-GLADAAKLLLKAAGW-NH2 [Peptide 11D12]	Peptide-POPG, Strand	0
GLLDDAKLLAKLAGW-AMIDE (GLLDDAKLLAKLAGW-NH2) [Peptide 7D12]	Peptide-POPG, Strand	6
